# MEASURED_TARGET: T1, full length human tau protein 2N4R (hT40) (human, UniProt P10636 1-758)
# T1 construct: recombinant; also called T441
# T1 sequence (P10636 other isoform, or with tags, fused parts or gaps limits assumed): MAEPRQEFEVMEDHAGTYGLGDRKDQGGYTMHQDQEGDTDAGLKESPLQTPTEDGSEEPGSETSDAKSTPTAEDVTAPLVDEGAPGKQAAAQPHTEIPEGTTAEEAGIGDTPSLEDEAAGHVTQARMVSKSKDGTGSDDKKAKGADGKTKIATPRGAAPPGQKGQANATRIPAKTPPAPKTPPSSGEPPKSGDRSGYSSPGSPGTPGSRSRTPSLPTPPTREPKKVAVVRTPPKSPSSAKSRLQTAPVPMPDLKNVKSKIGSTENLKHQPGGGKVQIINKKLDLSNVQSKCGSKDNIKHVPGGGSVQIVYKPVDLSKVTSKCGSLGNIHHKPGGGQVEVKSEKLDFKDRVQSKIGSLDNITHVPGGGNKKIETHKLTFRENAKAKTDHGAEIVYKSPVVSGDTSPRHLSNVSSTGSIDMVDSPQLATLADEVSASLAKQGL
# PROCEDURE_SUMMARY: SPR, scAb captured, tau analyte
OUTCOME_MEASURE: pKd
// scale note: pKd = -log10(conc_M); give the bare number

// query pKd value for entry 3aG3 scAb (scFv, not shown: small tags and cut ends, scAb) scFv: QVQLQESGPSLVKPSQTLSLTCTVSGFSLSSNGVGWVRQAPGKVPEWVGDISSSGKAYANPALKSRLSITRDTAKTQVFLSLSSVTTEDTAVYYCVRCRDGGVSYGYDIDYWGPGLLVTVSSEGKSSGASGESKVDDQAVLTQPPSVSGSPGQRVSITCSGSSSNIGGGNYLSWFQQVPGSAPKLLIYGATSRASGVPDRFSGSRSGNTATLTISSLQAEDEADYYCASFDTSSGGIFGAGTRLTVLG
8.21

// repeat for CE3 scAb (scFv, not shown: small tags and cut ends, scAb) scFv: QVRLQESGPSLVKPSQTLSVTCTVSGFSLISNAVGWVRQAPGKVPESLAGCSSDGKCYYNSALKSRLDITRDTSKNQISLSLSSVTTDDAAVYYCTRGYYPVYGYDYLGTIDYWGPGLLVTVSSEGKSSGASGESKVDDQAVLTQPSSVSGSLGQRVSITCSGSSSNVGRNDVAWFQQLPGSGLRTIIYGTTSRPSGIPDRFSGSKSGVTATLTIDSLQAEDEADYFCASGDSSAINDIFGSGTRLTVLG and report
8.42

// repeat for 3aB7 scAb (scFv, not shown: small tags and cut ends, scAb) scFv: QVQLQESGPSLVKPSQTLSLTCTVSGFSLTSNGVGWVRQAPGKVPEWVGDKSSAGKTYGNPALKSRLSITRDTSKSQVSLSLSSVTTEDTAVYYCVRCRDGGVTYGYDVDYWGPGLLVTVSSEGKSSGASGESKVDDQAVLTQPSSVSKSLGQSVSITCSGSSSNVGYGDVVSWFQQFPGSAPKLLIFGTTTRASGVPDRFSGSRSGNAATLTINSLQAEDEADYYCASFDSDSGGIAGSGTRLTVLG and report
7.16
